Reference source for all entries: patent US8975232B2

Assay Target: Src kinase domain (chicken c-Src residues 251-533) (Gallus gallus)
Construct: chicken c-Src (residues 251-533 and residues 83-533); made in house
Assay Overview: Continuous spectrophotometric kinase activity assay
Assay type: biochemical
Protocol Conditions: Src kinase domain; 5 μM ATP, 100 μM Src optimal peptide; listed as Macrocycle 1.2
Quantity Measured: IC50

Give a short answer stating reported IC50 for "O=C1/C=C\C(=O)N[C@@H](CC2CCCCC2)C(=O)N[C@@H](Cc2ccccc2)C(=O)N[C@@H](CCCNC(=O)c2cnccn2)C(=O)NCC[C@@H](C(=O)O)N1" .
≤ 70 nM

---

Assay Target: Lck (Mus musculus, UniProt P06240)
Construct: murine Lck (residues 227-509); made in house
Sequence (P06240 227-509): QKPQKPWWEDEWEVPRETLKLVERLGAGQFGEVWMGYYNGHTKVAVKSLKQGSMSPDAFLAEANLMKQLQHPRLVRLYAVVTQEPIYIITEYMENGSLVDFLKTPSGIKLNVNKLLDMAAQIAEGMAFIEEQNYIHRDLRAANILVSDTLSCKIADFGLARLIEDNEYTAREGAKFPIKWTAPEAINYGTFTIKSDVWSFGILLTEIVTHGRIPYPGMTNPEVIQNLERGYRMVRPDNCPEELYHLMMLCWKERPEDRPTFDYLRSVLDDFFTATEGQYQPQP
Assay Overview: Continuous spectrophotometric kinase activity assay
Type: biochemical, murine
Protocol Conditions: 5 μM ATP, 100 μM Src optimal peptide, listed as Macrocycle 1.2
Quantity Measured: IC50

Return IC50 (reported value) for this compound: O=C1/C=C\C(=O)N[C@@H](CC2CCCCC2)C(=O)N[C@@H](Cc2ccccc2)C(=O)N[C@@H](CCCNC(=O)c2cnccn2)C(=O)NCC[C@@H](C(=O)O)N1 [MC1.2]
≤ 870 nM

---

Assay Target: UniProt:P08631
Sequence (P08631 262-515 limits assumed): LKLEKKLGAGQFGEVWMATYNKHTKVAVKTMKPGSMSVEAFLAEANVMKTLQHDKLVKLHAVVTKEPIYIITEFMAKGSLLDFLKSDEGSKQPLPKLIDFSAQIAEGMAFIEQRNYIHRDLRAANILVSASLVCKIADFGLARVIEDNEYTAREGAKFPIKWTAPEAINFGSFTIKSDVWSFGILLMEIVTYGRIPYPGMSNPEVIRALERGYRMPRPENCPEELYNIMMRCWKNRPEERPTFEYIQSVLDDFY
Assay Overview: Continuous spectrophotometric kinase activity assay
Assay type: biochemical
Design: Kinase domain constructs of human c-Abl (residues 229-512), chicken c-Src (residues 251-533 and residues 83-533), murine Lck (residues 227-509), and human Hck (residues 166-445); made in house
Protocol Conditions: 5 μM ATP, 100 μM Src optimal peptide, listed as Macrocycle 1.2
Quantity Measured: IC50

Supply measured IC50 of O=C1/C=C\C(=O)N[C@@H](CC2CCCCC2)C(=O)N[C@@H](Cc2ccccc2)C(=O)N[C@@H](CCCNC(=O)c2cnccn2)C(=O)NCC[C@@H](C(=O)O)N1 [MC1.2] in your reply.
≤ 360 nM

---

Assay Target: Src kinase domain (chicken c-Src residues 251-533) (Gallus gallus, UniProt P00523)
Construct: chicken c-Src (residues 251-533 and residues 83-533); made in house
Assay Overview: Continuous spectrophotometric kinase activity assay
Assay type: biochemical
Protocol Conditions: Src kinase domain; 250 μM ATP, 300 μM Src optimal peptide
Hi there, I'd appreciate the recorded pIC50 for every entry that follows.
Give only the number. pIC50 is defined as minus log10 of concentration in molar units.

Please report the measured pIC50 for "O=C1/C=C\C(=O)N[C@@H](CC2CCCCC2)C(=O)N[C@@H](Cc2ccccc2)C(=O)N[C@@H](CCCNC(=O)c2cnccn2)C(=O)NCC[C@@H](C(=O)O)N1"
6.85

Assign pIC50 to the following record: NC(=O)[C@@H]1CCNC(=O)[C@H](CCCNC(=O)c2cnccn2)NC(=O)[C@H](Cc2ccco2)NC(=O)[C@H](CC2CC2)NC(=O)/C=C\C(=O)N1 [cis-A11-B1-C5-D7]
4.05

Tell me measured pIC50 for "NC(=O)[C@@H]1CCCNC(=O)[C@H](Cc2ccc([N+](=O)[O-])cc2)NC(=O)[C@H](Cc2ccccc2)NC(=O)[C@H](CC2CC2)NC(=O)/C=C/C(=O)N1" please.
5.74

Assign pIC50 to the following record: NC(=O)[C@@H]1CCCNC(=O)[C@H](Cc2ccc([N+](=O)[O-])cc2)NC(=O)[C@H](Cc2ccco2)NC(=O)[C@H](CC2CC2)NC(=O)/C=C/C(=O)N1 [trans-A10-B1-C5-D6]
4.68

---

Assay Target: Src kinase domain (chicken c-Src residues 251-533) (Gallus gallus, UniProt P00523)
Construct: chicken c-Src (residues 251-533 and residues 83-533); made in house
Assay Overview: Continuous spectrophotometric kinase activity assay
Assay type: biochemical
Protocol Conditions: Src kinase domain; 5 μM ATP, 300 μM Src optimal peptide
Quantity Measured: pIC50
When answering, recall that pIC50 equals minus log10 of the concentration in mol/L, and write that number alone.

// fetch pIC50; item: NC(=O)[C@@H]1CCNC(=O)[C@H](CCCNC(=O)c2cnccn2)NC(=O)[C@H](Cc2ccco2)NC(=O)[C@H](CC2CC2)NC(=O)/C=C\C(=O)N1 [cis-A11-B1-C5-D7] ; system: Src kinase domain (chicken c-Src residues 251-533) (Gallus gallus, UniProt P00523)
4.59

State pIC50 (Src kinase domain (chicken c-Src residues 251-533) (Gallus gallus, UniProt P00523)) of NC(=O)[C@@H]1CCCNC(=O)[C@H](Cc2ccc([N+](=O)[O-])cc2)NC(=O)[C@H](Cc2ccccc2)NC(=O)[C@H](CC2CC2)NC(=O)/C=C/C(=O)N1 [MC4.1] .
6.10

GET pIC50 where system = Src kinase domain (chicken c-Src residues 251-533) (Gallus gallus, UniProt P00523) and item = O=C1/C=C\C(=O)N[C@@H](CC2CCCCC2)C(=O)N[C@@H](Cc2ccccc2)C(=O)N[C@@H](CCCNC(=O)c2cnccn2)C(=O)NCC[C@@H](C(=O)O)N1 [MC1.2]
6.92

---

Assay Target: Src kinase domain (chicken c-Src residues 251-533) (Gallus gallus, UniProt P00523)
Construct: chicken c-Src (residues 251-533 and residues 83-533); made in house
Assay Overview: Continuous spectrophotometric kinase activity assay
Type: biochemical
Protocol Conditions: Src kinase domain; 5 μM ATP, 100 μM Src optimal peptide
Quantity Measured: IC50
Answer with the value and then the unit.

Supply IC50 value. Item: NC(=O)[C@@H]1CCCNC(=O)[C@H](Cc2ccc([N+](=O)[O-])cc2)NC(=O)[C@H](Cc2ccccc2)NC(=O)[C@H](CC2CC2)NC(=O)/C=C/C(=O)N1 [MC4.1]
600 nM

Fill in IC50 for record O=C1/C=C\C(=O)N[C@@H](CC2CCCCC2)C(=O)N[C@@H](Cc2ccccc2)C(=O)N[C@@H](CCCNC(=O)c2cnccn2)C(=O)NCC[C@@H](C(=O)O)N1 [MC1.2]
70 nM

Determine its reported IC50: NC(=O)[C@@H]1CCCNC(=O)[C@H](Cc2ccc([N+](=O)[O-])cc2)NC(=O)[C@H](Cc2ccco2)NC(=O)[C@H](CC2CC2)NC(=O)/C=C/C(=O)N1 [trans-A10-B1-C5-D6]
11000 nM

---

Assay Target: Src kinase domain (chicken c-Src residues 251-533) (Gallus gallus, UniProt P00523)
Construct: chicken c-Src (residues 251-533 and residues 83-533); made in house
Assay Overview: Continuous spectrophotometric kinase activity assay
Format: biochemical
Protocol Conditions: Src kinase domain; 5 μM ATP, 100 μM Src optimal peptide
Quantity Measured: pIC50
# pIC50 = -log10(concentration in molar units)

Quick one: give measured pIC50 for NC(=O)[C@@H]1CCNC(=O)[C@H](CCCNC(=O)c2cnccn2)NC(=O)[C@H](CC2CCCCC2)NC(=O)[C@H](C/C=C/c2ccccc2)NC(=O)/C=C\C(=O)N1 [cis-A11-B8-C10-D7]
4.16

Supply recorded pIC50 for NC(=O)[C@@H]1CCNC(=O)[C@H](CCCNC(=O)c2cnccn2)NC(=O)[C@H](Cc2ccco2)NC(=O)[C@H](CC2CC2)NC(=O)/C=C\C(=O)N1 [cis-A11-B1-C5-D7] here.
4.80

// fetch pIC50 given entry "NC(=O)[C@@H]1CCCNC(=O)[C@H](Cc2ccc([N+](=O)[O-])cc2)NC(=O)[C@H](Cc2ccccc2)NC(=O)[C@H](CC2CCCCC2)NC(=O)/C=C/C(=O)N1"
6.22

---

Assay Target: Src kinase (Homo sapiens)
Sequence (P12931 whole entry): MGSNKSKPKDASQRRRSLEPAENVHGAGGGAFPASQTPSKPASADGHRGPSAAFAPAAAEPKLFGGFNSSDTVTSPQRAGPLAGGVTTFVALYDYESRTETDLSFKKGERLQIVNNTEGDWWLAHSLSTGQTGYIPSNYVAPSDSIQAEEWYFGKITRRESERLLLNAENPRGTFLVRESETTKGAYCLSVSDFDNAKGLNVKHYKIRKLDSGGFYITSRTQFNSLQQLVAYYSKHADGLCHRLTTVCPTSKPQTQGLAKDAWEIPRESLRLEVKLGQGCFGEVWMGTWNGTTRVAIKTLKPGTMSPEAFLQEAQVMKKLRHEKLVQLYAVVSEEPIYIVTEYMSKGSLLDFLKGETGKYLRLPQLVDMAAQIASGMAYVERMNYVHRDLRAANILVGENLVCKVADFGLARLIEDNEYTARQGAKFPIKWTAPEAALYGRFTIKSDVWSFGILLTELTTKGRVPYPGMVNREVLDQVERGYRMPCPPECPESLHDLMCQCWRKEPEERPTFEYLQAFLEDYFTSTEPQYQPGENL
Assay Overview: Z'-LYTE kinase assay (Invitrogen), Src
Protocol Conditions: Z'-LYTE; ATP near KM
I'd be grateful if you could share measured pIC50 for these entries.
Scale explanation: pIC50 corresponds to minus log10 of a concentration expressed in moles per litre.

Supply recorded pIC50 for NC(=O)[C@@H]1CCNC(=O)[C@H](CCCNC(=O)c2cnccn2)NC(=O)[C@H](CC2CCCCC2)NC(=O)[C@H](C/C=C/c2ccccc2)NC(=O)/C=C\C(=O)N1 [cis-A11-B8-C10-D7] here.
4.60

Identify the reported pIC50 for the following entry. NC(=O)[C@@H]1CCCCNC(=O)[C@H](CCCNC(=O)c2cnccn2)NC(=O)[C@H](Cc2ccco2)NC(=O)[C@H](CC2CC2)NC(=O)/C=C\C(=O)N1 [cis-A11-B1-C5-D5]
4.07

Answer with the recorded pIC50 for the compound listed here: NC(=O)[C@@H]1CCNC(=O)[C@H](CCCNC(=O)c2cnccn2)NC(=O)[C@H](Cc2ccco2)NC(=O)[C@H](C/C=C/c2ccccc2)NC(=O)/C=C/C(=O)N1 [trans-A11-B1-C10-D7]
4.68

Using the record for NC(=O)[C@@H]1CCNC(=O)[C@H](CCCNC(=O)c2cnccn2)NC(=O)[C@H](CC2CCCCC2)NC(=O)[C@H](CC2CC2)NC(=O)/C=C\C(=O)N1 [cis-A11-B8-C5-D7] , state its measured pIC50.
4.44

Supply reported pIC50 belonging to this compound: NC(=O)[C@@H]1CCNC(=O)[C@H](Cc2ccc([N+](=O)[O-])cc2)NC(=O)[C@H](Cc2ccco2)NC(=O)[C@H](CC2CC2)NC(=O)/C=C/C(=O)N1 [trans-A10-B1-C5-D7]
5.82

Please give the documented pIC50 of C=CC[C@@H]1NC(=O)/C=C/C(=O)N[C@H](C(N)=O)CCNC(=O)[C@H](CCCNC(=O)c2cnccn2)NC(=O)[C@H](Cc2ccco2)NC1=O [trans-A11-B1-C3-D7]
4.32

Please indicate pIC50 recorded for NC(=O)[C@@H]1CCNC(=O)[C@H](CCCNC(=O)c2cnccn2)NC(=O)[C@H](Cc2ccco2)NC(=O)[C@H](CC2CC2)NC(=O)/C=C/C(=O)N1 [trans-A11-B1-C5-D7]
4.92

Give pIC50 for the following compound: NC(=O)[C@@H]1CCNC(=O)[C@H](CCCNC(=O)c2cnccn2)NC(=O)[C@H](Cc2ccco2)NC(=O)[C@H](CC2CC2)NC(=O)/C=C\C(=O)N1 [cis-A11-B1-C5-D7]
6.02
